- System: MALME-3M melanoma
- measurement.notes: NCI tumour cell line growth inhibition, 48 h; in the data active means GI50 below about 0.43 µM; inactive means the rest
Possible outcomes: active, inactive

[
  {
    "molecule": "COc1cc(NC(=O)CSc2nc3ccccc3c(=O)n2CCc2ccccc2)cc(OC)c1OC",
    "assigned.label": "inactive"
  },
  {
    "molecule": "Cc1ccc(NC2=C(Cl)C(=O)N(Cc3ccccc3)C2=O)cc1Cl",
    "assigned.label": "inactive"
  },
  {
    "molecule": "CCOC(=O)c1c(Cl)c2c(n1Cc1cccc(OC)c1)-c1oncc1CC2",
    "assigned.label": "inactive"
  },
  {
    "molecule": "Cn1ccnc1C(=O)/C=C/c1ccc(CC(=O)Nc2ccc(F)cc2)cc1",
    "assigned.label": "inactive"
  },
  {
    "molecule": "C=Cc1cc(OC)c2c(c1)c(=O)oc1c2cc(OC)c2c(O)ccc(C3OC(C)C(O)C(C)(O)C3O)c21 (stereo not given)",
    "assigned.label": "active"
  },
  {
    "molecule": "O=C(Nc1ccc(OCc2nnc(-c3ccccc3)o2)c(F)c1)Nc1ccc(Cl)c(C(F)(F)F)c1",
    "assigned.label": "inactive"
  },
  {
    "molecule": "N=c1n(Cc2ccccc2)c(N)cc(=O)n1Cc1ccccc1",
    "assigned.label": "inactive"
  },
  {
    "molecule": "Cc1cc(C)c2nc3nc(C)cc(C)c3c(N)c2c1",
    "assigned.label": "inactive"
  },
  {
    "molecule": "N#C/C(=C1C=C/C(=N\\O)C(Cl)=C\\1)c1ccccc1",
    "assigned.label": "inactive"
  },
  {
    "molecule": "COc1ccc(-c2nc(N3CCOCC3)c3sc(CN(C)c4ncc(C(=O)NO)cn4)cc3n2)cn1",
    "assigned.label": "active"
  },
  {
    "molecule": "Cc1ccc(-c2nc(N)c(C#N)c3c2CCOc2c-3ccc3ccccc23)cc1",
    "assigned.label": "active"
  },
  {
    "molecule": "Cc1[nH]nc2ccc3nc(-c4ccc5[nH]ncc5c4)c4c(c3c12)CCCC4",
    "assigned.label": "inactive"
  },
  {
    "molecule": "COc1cccc(Cn2c(-c3nonc3NC(C)=O)nc3ccccc32)c1",
    "assigned.label": "inactive"
  },
  {
    "molecule": "O=C1CC[C@H](c2ccc(O)c3c2C(=O)[C@@H]2O[C@@H]2C3=O)c2cccc(O)c21",
    "assigned.label": "inactive"
  },
  {
    "molecule": "Cc1nn(-c2ccccc2)c2nc3c(nc12)C1=NCCN1C(c1ccc(Cl)cc1)N3 (stereo not given)",
    "assigned.label": "inactive"
  }
]

====

- Tested on: MDA-MB-435
- measurement.notes: NCI tumour cell line growth inhibition, 48 h

[
  {
    "molecule": "Cc1sc(Nc2ccccc2[N+](=O)[O-])c(C#N)c1C",
    "comparison.sign": ">",
    "TGI / µM": 100
  },
  {
    "molecule": "CNC(=O)NC(CCCCNC(=O)OCc1ccccc1)C(=O)OCc1ccccc1 (centres undefined)",
    "comparison.sign": "=",
    "TGI / µM": 39.5
  },
  {
    "molecule": "CC(C)n1c(=O)n(C)c2cnc3cc(F)c(-c4ccc(OCCCN5CCCCC5)nc4)cc3c21",
    "comparison.sign": "=",
    "TGI / µM": 71.4
  },
  {
    "molecule": "CN(C)C(=S)N/N=C(\\C(=N/NC(=S)N(C)C)c1ccccn1)c1ccccn1",
    "comparison.sign": "=",
    "TGI / µM": 26
  },
  {
    "molecule": "Cc1coc2c1C(=O)C(=O)c1c-2ccc2c1CCCC2(C)C",
    "comparison.sign": "=",
    "TGI / µM": 2.88
  },
  {
    "molecule": "CS(=O)(=O)c1ccc(Oc2cc(F)cc(C#N)c2)c2c1[C@H](O)C(F)(F)C2",
    "comparison.sign": ">",
    "TGI / µM": 100
  },
  {
    "molecule": "COC1=CC(c2ccc[nH]2)=N/C1=C\\c1[nH]c(C)c(C(C)=O)c1C",
    "comparison.sign": ">",
    "TGI / µM": 100
  },
  {
    "molecule": "CNC(=O)C1CCCN1C(=O)C(Cc1cnc[nH]1)NC(=O)C1CCC(=O)N1 (centres undefined)",
    "comparison.sign": ">",
    "TGI / µM": 100
  },
  {
    "molecule": "C=CC[C@@H]1/C=C(\\C)C[C@H](C)C[C@H](OC)[C@H]2O[C@@](O)(C(=O)C(=O)N3CCCC[C@H]3C(=O)O[C@H](/C(C)=C/C3CC[C@@H](O)[C@H](OC)C3)[C@H](C)[C@@H](O)CC1=O)[C@H](C)C[C@@H]2OC (some centres undefined)",
    "comparison.sign": "=",
    "TGI / µM": 37.7
  }
]
